Where do the numbers come from? From the NIST ThermoML archive (doi:10.1021/acs.jced.9b00442).

details: 304.15 K; 100 kPa; Liquid; Vibrating tube method
assayMetric: mass density (kg/m3)

>>> reportedvalue("CCCC[N+](CCO)(CCO)CCO.O=S(=O)([N-]S(=O)(=O)C(F)(F)F)C(F)(F)F")
1451.4
>>> reportedvalue("CCCC[N+](C)(C)CC.O=S(=O)([N-]S(=O)(=O)C(F)(F)F)C(F)(F)F")
1366.3
>>> reportedvalue("CC[N+](C)(C)CCOC.O=S(=O)([N-]S(=O)(=O)C(F)(F)F)C(F)(F)F")
1425.3
>>> reportedvalue("CC[N+](C)(C)CCCO.O=S(=O)([N-]S(=O)(=O)C(F)(F)F)C(F)(F)F")
1458.2
>>> reportedvalue("C[N+](CCO)(CCO)CCO.O=S(=O)([N-]S(=O)(=O)C(F)(F)F)C(F)(F)F")
1561.4
>>> reportedvalue("CC[N+](C)(CCO)CCO.O=S(=O)([N-]S(=O)(=O)C(F)(F)F)C(F)(F)F")
1509.8
>>> reportedvalue("CC[N+](CCO)(CCO)CCO.O=S(=O)([N-]S(=O)(=O)C(F)(F)F)C(F)(F)F")
1524.5

---

conditions: 338.15 K; 100 kPa; Liquid; Concentric cylinders viscometry
We label by threshold. Values of viscosity strictly beneath 40 mPa·s are t. Values of 40 mPa·s and up are f.

>>> classassignment("CCCC[N+](CCO)(CCO)CCO.O=S(=O)([N-]S(=O)(=O)C(F)(F)F)C(F)(F)F")
"f"
>>> classassignment("CC[N+](C)(C)CCCO.O=S(=O)([N-]S(=O)(=O)C(F)(F)F)C(F)(F)F")
"t"
>>> classassignment("CC[N+](CCO)(CCO)CCO.O=S(=O)([N-]S(=O)(=O)C(F)(F)F)C(F)(F)F")
"f"
>>> classassignment("CC[N+](C)(C)CCOC.O=S(=O)([N-]S(=O)(=O)C(F)(F)F)C(F)(F)F")
"t"
>>> classassignment("CCCC[N+](C)(C)CC.O=S(=O)([N-]S(=O)(=O)C(F)(F)F)C(F)(F)F")
"t"
>>> classassignment("C[N+](CCO)(CCO)CCO.O=S(=O)([N-]S(=O)(=O)C(F)(F)F)C(F)(F)F")
"f"

---

details: 358.15 K; 100 kPa; Liquid; Concentric cylinders viscometry
± gives the expanded uncertainty stated by the source.
viscosity values, listed per item
assayMetric: viscosity

>>> reportedvalue("C[N+](CCO)(CCO)CCO.O=S(=O)([N-]S(=O)(=O)C(F)(F)F)C(F)(F)F")
"30.1 ± 1.2 mPa·s"
>>> reportedvalue("CC[N+](C)(C)CCCO.O=S(=O)([N-]S(=O)(=O)C(F)(F)F)C(F)(F)F")
"16.2 ± 0.7 mPa·s"
>>> reportedvalue("CCCC[N+](C)(C)CC.O=S(=O)([N-]S(=O)(=O)C(F)(F)F)C(F)(F)F")
"12.4 ± 0.5 mPa·s"
>>> reportedvalue("CC[N+](CCO)(CCO)CCO.O=S(=O)([N-]S(=O)(=O)C(F)(F)F)C(F)(F)F")
"35.3 ± 1.4 mPa·s"
>>> reportedvalue("CC[N+](C)(C)CCOC.O=S(=O)([N-]S(=O)(=O)C(F)(F)F)C(F)(F)F")
"9.7 ± 0.4 mPa·s"
>>> reportedvalue("CC[N+](C)(CCO)CCO.O=S(=O)([N-]S(=O)(=O)C(F)(F)F)C(F)(F)F")
"21.1 ± 0.9 mPa·s"
>>> reportedvalue("CCCC[N+](CCO)(CCO)CCO.O=S(=O)([N-]S(=O)(=O)C(F)(F)F)C(F)(F)F")
"37 ± 1.5 mPa·s"
